# PROTOCOL_SUMMARY: Apparent permeability from apical to basolateral side in human Caco2 cells
# CONDITION_PARAMETERS: Caco-2
MEASURE: Papp A→B (×10⁻⁶ cm/s)
Note: unit ×10⁻⁶ cm/s is implicit; provide only the numeric part.

Request: Return reported Papp A→B; argument: Cc1cc2c(C(N)=O)cccc2n1-c1nc2c(c(NCc3ccccc3)n1)COCC2
Response: 52.4

---

# PROTOCOL_SUMMARY: Aqueous solubility of compound
# Type: physicochemical
# CONDITION_PARAMETERS: aqueous medium
Would you mind telling me the reported solubility of each entry?
Answer format: numeric, µg/mL implied, no suffix.

Request: I am curious: what solubility value has been reported for Cc1cc2c(C(N)=O)cccc2n1-c1nc2c(c(NCc3ccccc3)n1)CNCC2 ?
Response: 1260

Request: Could you tell me which solubility is on file for Cc1cc2ccccc2n1-c1nc2c(c(NCc3ccccc3)n1)CNCC2 ?
Response: 750

Request: So what's the measured solubility for this one? Cc1cc2c(C(N)=O)cccc2n1-c1nc2c(c(NCc3ccccc3)n1)CCCC2
Response: 4

Request: Item under review: Cc1cc2c(C(N)=O)cccc2n1-c1nc2c(c(NCc3ccccc3)n1)COCC2 . Reported solubility?
Response: 32

---

# SUBJECT_OF_TEST: Transitional endoplasmic reticulum ATPase (Homo sapiens, UniProt P55072)
# Sequence (P55072 whole entry): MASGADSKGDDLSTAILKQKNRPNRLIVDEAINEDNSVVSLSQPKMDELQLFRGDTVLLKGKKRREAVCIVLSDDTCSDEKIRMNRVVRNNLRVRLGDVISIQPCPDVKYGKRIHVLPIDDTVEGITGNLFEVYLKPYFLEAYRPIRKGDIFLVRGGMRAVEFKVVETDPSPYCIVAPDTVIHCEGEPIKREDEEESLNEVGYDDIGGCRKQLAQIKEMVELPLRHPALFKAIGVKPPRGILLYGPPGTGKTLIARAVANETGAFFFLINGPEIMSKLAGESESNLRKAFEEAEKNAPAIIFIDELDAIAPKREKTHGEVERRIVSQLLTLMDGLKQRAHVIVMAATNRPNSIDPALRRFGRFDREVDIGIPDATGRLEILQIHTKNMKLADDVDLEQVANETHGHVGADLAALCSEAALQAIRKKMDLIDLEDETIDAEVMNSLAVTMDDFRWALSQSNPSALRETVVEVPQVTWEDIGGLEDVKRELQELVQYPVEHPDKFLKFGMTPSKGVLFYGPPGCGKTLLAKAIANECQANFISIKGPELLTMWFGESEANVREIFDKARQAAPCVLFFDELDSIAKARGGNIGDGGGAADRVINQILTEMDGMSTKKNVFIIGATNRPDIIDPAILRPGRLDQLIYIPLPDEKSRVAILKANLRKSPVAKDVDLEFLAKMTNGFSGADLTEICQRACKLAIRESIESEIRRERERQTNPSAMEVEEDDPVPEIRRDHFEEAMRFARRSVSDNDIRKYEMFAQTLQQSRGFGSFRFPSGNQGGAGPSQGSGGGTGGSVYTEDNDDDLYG
IC50 class ranges: range A = under 200 nM, range B = from 200 nM up to 700 nM, range C = 700 nM and over

Request: Kindly identify the class of Cc1nc2ccccn2c1-c1nc2c(c(NCc3ccccc3)n1)CCCC2 .
Response: range B

Request: Would you mind sorting Cc1nc2ccccc2n1-c1nc2c(c(NCc3ccccc3)n1)CNCC2 into the appropriate category?
Response: range C

Request: State the class of the compound shown: COc1cccc2c(NC(=O)c3ccccc3)nc(-n3c(N)nc4ccccc43)nc12
Response: range C

Request: Into which category would you place Nc1nc2ccccc2n1-c1nc2c(c(NCc3ccccc3)n1)CNCC2 ?
Response: range C

Request: Form field 'band' for CCc1cc2ccccc2n1-c1nc2c(c(NCc3ccccc3)n1)CCCC2
Response: range B

Request: Hi there! Could you help me figure out the category for CNc1nc2ccccc2n1-c1nc(NCc2ccccc2)c2cccc(OC)c2n1 please?
Response: range B

Request: Assign a category based on measured IC50 for COc1cccc2c(N(C)Cc3ccccc3)nc(-n3c(N)nc4ccccc43)nc12 and give only the class name.
Response: range C

Request: Consider COc1cccc2c(NCc3ccccc3)nc(-n3c(N(C)C)nc4ccccc43)nc12 . To which IC50 class does it belong?
Response: range B

Request: Category lookup for the compound COc1nc2ccccc2n1-c1nc(NCc2ccccc2)c2ncsc2n1
Response: range A

Request: Which class is correct for the following compound? COc1cccc2c(NCc3ccccc3)nc(Cn3c(C)nc4ccccc43)nc12
Response: range C

Request: For COc1ccc2cc(C)n(-c3nc4c(c(NCc5ccccc5)n3)CNCC4)c2c1 , which IC50 bin applies?
Response: range C

Request: Please report the category associated with COc1cccc2c(NCCc3ccccc3)nc(-n3c(N)nc4ccccc43)nc12 , nothing else.
Response: range C

Request: Consider COc1cccc2c(CCc3ccccc3)nc(-n3c(N)nc4ccccc43)nc12 . To which IC50 class does it belong?
Response: range C

Request: Where would CNC(=O)c1cccc2c1cc(C)n2-c1nc2c(c(NCc3ccccc3)n1)CNCC2 land among the classes by reported IC50?
Response: range B

Request: Lab note: which band did COCCOc1cccc2c(NCc3ccccc3)nc(-n3c(N)nc4ccccc43)nc12 land in?
Response: range C

Request: Form: Item = Nc1nc2ccccc2n1-c1nc(NCc2ccccc2)c2ccsc2n1 ; Class = ?
Response: range C

Request: Kindly state the category for this compound: COc1cccc2c(NCc3ccccc3)nc(-n3c(N)nc4c3CCCC4)nc12
Response: range C

Request: Would you mind sorting OCc1cc2ccccc2n1-c1nc2c(c(NCc3ccccc3)n1)CCCC2 into the appropriate category?
Response: range A

Request: State the band of FC(F)(F)c1cc2ccccc2n1-c1nc2c(c(NCc3ccccc3)n1)CCCC2
Response: range B

Request: # bin label for Cc1cc2c(F)cccc2n1-c1nc2c(c(NCc3ccccc3)n1)CNCC2
Response: range B

Request: State the band of Cc1cc2c(C(N)=O)cccc2n1-c1nc2c(c(NCc3ccccc3)n1)CCNC2
Response: range A

Request: Please report the category associated with Cc1cc2ccccc2n1-c1nc2c(c(NCc3ccccc3)n1)CNCC2 , nothing else.
Response: range A

Request: Entry Cc1cc2ccccc2n1-c1nc2c(c(NCc3ccccc3)n1)CCCC2 belongs to which category?
Response: range A

Request: Lab note: sort Cc1cc2c(C#N)cccc2n1-c1nc2c(c(NCc3ccccc3)n1)CNCC2 into the matching IC50 band.
Response: range A

Request: Band assignment needed for COc1cccc2c1cc(C)n2-c1nc2c(c(NCc3ccccc3)n1)CNCC2 please.
Response: range C

Request: Could you tell me which band COc1nc2ccccc2n1-c1nc2c(c(NCc3ccccc3)n1)CNCC2 belongs to?
Response: range C

Request: Lab note: which band did COCc1cc2ccccc2n1-c1nc2c(c(NCc3ccccc3)n1)CCCC2 land in?
Response: range C

Request: For COc1cccc2c(NCc3ccccc3)nc(-n3c(=O)[nH]c4ccccc43)nc12 , which IC50 bin applies?
Response: range C

Request: Please report the category associated with COc1cccc2c(NCc3ccccc3)nc(-n3c(C)nc4ccccc43)nc12 , nothing else.
Response: range A

Request: State the class of the compound shown: CCc1nc2ccccc2n1-c1nc(NCc2ccccc2)c2cccc(OC)c2n1
Response: range C

Request: Please indicate the class for COc1cccc2c(OCc3ccccc3)nc(-n3c(N)nc4ccccc43)nc12 based on its IC50.
Response: range C

Request: Band for the recorded IC50 of Cc1cc2c(C(=O)N(C)C)cccc2n1-c1nc2c(c(NCc3ccccc3)n1)CNCC2 ?
Response: range C

Request: Which category fits this record: Cc1cc2c(-c3nnn[nH]3)cccc2n1-c1nc2c(c(NCc3ccccc3)n1)CNCC2
Response: range A

Request: Exercise: read the entry COc1ccc2c(c1)cc(C)n2-c1nc2c(c(NCc3ccccc3)n1)CNCC2 and state which class it falls under.
Response: range C

Request: GET /class?item= Cc1cc2ccc(C#N)cc2n1-c1nc2c(c(NCc3ccccc3)n1)CNCC2
Response: range C

Request: Record Cc1cc2c(C(N)=O)cccc2n1-c1nc2c(c(NCc3ccccc3)n1)CCCC2 — which class?
Response: range A

Request: Record Cc1cc2c(C(N)=O)cccc2n1-c1nc2c(c(NCc3ccccc3)n1)CNCC2 — which class?
Response: range A

Request: Band of Cc1cc2c(C(=O)O)cccc2n1-c1nc2c(c(NCc3ccccc3)n1)CNCC2 ?
Response: range A

Request: GET /class?item= Cc1ccc2cc(C)n(-c3nc4c(c(NCc5ccccc5)n3)CNCC4)c2c1
Response: range C

Request: Assign a bin to Cc1cc2c(C(F)(F)F)cccc2n1-c1nc2c(c(NCc3ccccc3)n1)CNCC2
Response: range C

Request: Bin? COc1cccc2c(NCc3ccccc3)nc(-n3cnc4ccccc43)nc12
Response: range C

Request: State the band of Cc1nc2ccccc2n1-c1nc2c(c(NCc3ccccc3)n1)CCCC2
Response: range A

---

# System: A549
# PROTOCOL_SUMMARY: cells
# CONDITION_PARAMETERS: Homo sapiens, A549, 72 h
# Description: Cytotoxicity against human A549 cells assessed as cell viability after 72 hrs by Celltiter-Glo assay
Exercise: state measured IC50 for each of the compounds provided.

Request: Item NCc1cc2ccccc2n1-c1nc2c(c(NCc3ccccc3)n1)CCCC2 has what recorded IC50?
Response: 4.7 µM

Request: Which IC50 value is on record for FC(F)(F)c1cc2ccccc2n1-c1nc2c(c(NCc3ccccc3)n1)CCCC2 ?
Response: > 40 µM

Request: I would be grateful if you could share the reported IC50 for Cc1cc2c(C(N)=O)cccc2n1-c1nc2c(c(NCc3ccccc3)n1)CCOC2 .
Response: 1.07 µM

Request: Query: IC50; subject: Cc1cc2c(C(=O)O)cccc2n1-c1nc2c(c(NCc3ccccc3)n1)CNCC2
Response: > 40 µM

Request: Query (compound): OCc1cc2ccccc2n1-c1nc2c(c(NCc3ccccc3)n1)CCCC2 ; field requested: IC50
Response: 8.4 µM

Request: Given the compound COc1nc2ccccc2n1-c1nc2c(c(NCc3ccccc3)n1)CCCC2 , what is its reported IC50?
Response: 7.45 µM

Request: Value lookup for IC50; key = COCc1cc2ccccc2n1-c1nc2c(c(NCc3ccccc3)n1)CCCC2
Response: > 40 µM

Request: Consider the compound shown here: COc1cc2ccccc2n1-c1nc2c(c(NCc3ccccc3)n1)CCCC2 What is its recorded IC50?
Response: 7.11 µM

Request: Which IC50 reading was recorded for the compound Cc1cc2c(F)cccc2n1-c1nc2c(c(NCc3ccccc3)n1)CNCC2 ?
Response: 6.28 µM

Request: Would you mind telling me what IC50 value was observed for Cc1nn2ccccc2c1-c1nc2c(c(NCc3ccccc3)n1)CCCC2 ?
Response: 25 µM
